test system: P-388/Adr cells; experiment: growth inhibition of P388/adr cells in culture; type: cell-based, murine; conditions: Mus musculus, mean ± standard deviation, read-out: Gl50 (concentration of lipid required to inhibit the growth of fifty percent of the cells in culture)
quantity.measured: IC50 (µM)

compound: CCCCCCCCCCCCCCCCCCOCC(COP(=O)([O-])OCC[N+](C)(C)C)OC (stereo not shown) [compound 1, edelfosine, reference compound]
system: P-388/Adr cells
units: µM
measured: 6.39

* * *

Catalogue of compounds with associated growth: increase in cell numbers relative to control wells (control = 100)
system: OVCAR-3 cells (ovarian adenocarcinoma); test: growth inhibition of OVCAR-3 cells in culture; assay type: cell-based, human; conditions: OVCAR-3; lipid concentration 30 μM; 72 h
quantity.measured: growth: increase in cell numbers relative to control wells (control = 100)

compound: CCCCCCCCCCCCCCCCOC[C@H](CO[C@@H]1O[C@H](CO)[C@@H](O)[C@H](O)[C@H]1NC(C)=O)OC
measured: 4.7
//
compound: CCCCCCCCCCCCCCCCOP(=O)([O-])OCC[N+](C)(C)C
measured: 67.2
//
compound: CCCCCCCC/C=C\CCCCCCCCCCCCOP(=O)([O-])OCC[N+](C)(C)C
measured: 60
//
compound: CCCCCCCCCCCCCCCCCCOCC(COP(=O)([O-])OCC[N+](C)(C)C)OC (stereo not shown) [compound 1, edelfosine, reference compound]
measured: 20.4

* * *

tested on: MCF-7 (breast adenocarcinoma) cells; test: growth inhibition of MCF-7 cells in culture; assay type: cell-based, human; conditions: MCF-7; 72 h; 10% FBS-supplemented medium; read-out: Gl50 (concentration that inhibited cell growth by 50% in comparison to control cultures)
pIC50: −log10 of the molar value.

molecule: CCCCCCCCCCCCCCCCOC[C@H](CO[C@@H]1O[C@H](CO)[C@@H](O)[C@H](O)[C@H]1NC(C)=O)OC [B]
pIC50: 4.77

molecule: CCCCCCCCCCCCCCCCOC[C@H](CO[C@@H]1O[C@H](CO)[C@@H](O)[C@H](O)[C@H]1N)OC [A]
pIC50: 5.19

* * *

test system: P388 cells; assay: growth inhibition of P388 cells in culture; assay type: cell-based, murine; conditions: Mus musculus, mean ± standard deviation, read-out: Gl50 (concentration of lipid required to inhibit the growth of fifty percent of the cells in culture)
quantity.measured: IC50 (µM)

compound: CCCCCCCCCCCCCCCCCCOCC(COP(=O)([O-])OCC[N+](C)(C)C)OC (stereo not shown) [compound 1, edelfosine, reference compound]
measured: 4.33

* * *

Test system: L1210/vmdr cells
Test: growth inhibition of L1210/vmdr cells in culture
Assay type: cell-based
Conditions: Mus musculus, mean ± standard deviation, read-out: Gl50 (concentration of lipid required to inhibit the growth of fifty percent of the cells in culture)
Description: The Gl50 values for edelfosine (1), 2′-deoxy-β-D-arabinopyranosyl (2), 2′-deoxy-α-D-arabinopyranosyl (3), 2-O-methyl-β-D-glucopyranosyl (4), 2′-O-methyl-β-D-mannopyranosyl (5) and α-D-mannopyransoyl (6) on A-549, MCF-7, Lewis Lung, MCF-7/Adr (adriamycin-resistant), P388, P-388/Adr, L1210 and L1210/vmdr cells were determined and are set forth below (see Table 4) as the concentration (micromolar) of lipid required to inhibit the growth of fifty percent of the cells in culture. […]

compound: CCCCCCCCCCCCCCCCCCOCC(COP(=O)([O-])OCC[N+](C)(C)C)OC (stereo not shown) [compound 1, edelfosine, reference compound]
IC50: 11 µM
